System: SK-MEL-5 melanoma
Assay: NCI tumour cell line growth inhibition, 48 h
List of TGI values.
PROPERTY NAME: TGI

molecule="CCC(C)C(N)C(=O)N/N=C\\c1c2c(nc3ccccc13)-c1cc3c(c(=O)n1C2)COC(=O)[C@]3(O)CC (stereo partly specified)" property_name=TGI recorded_result="0.452 µM"
molecule=C=C1C(=O)O[C@H]2[C@H]1CC/C(COC(=O)N[C@H]1C[C@H](O[C@H]3C[C@](O)(C(=O)CO)Cc4c(O)c5c(c(O)c43)C(=O)c3c(OC)cccc3C5=O)O[C@@H](C)[C@H]1O)=C\CC[C@@]1(C)O[C@@H]21 property_name=TGI recorded_result="18.1 µM"
molecule="C=C1C(=O)OC2C1CCC(C)C1(O)C=CC(=O)C21C (stereo unspecified)" property_name=TGI recorded_result="> 10 µM"
molecule=CN=C(Nc1ccc(OC)c2ccccc12)SC property_name=TGI recorded_result="> 10 µM"
molecule=O=c1c2c(-c3ccccc3)c3ccccc3nc2cnn1-c1ccccc1 property_name=TGI recorded_result="> 100 µM"
molecule=O=C(c1cccs1)c1nccc2c1cnc1ccccc12 property_name=TGI recorded_result="> 100 µM"

###

Examples of compounds with documented TGI follow.
System: UACC-62 melanoma
Experiment: NCI tumour cell line growth inhibition, 48 h
PROPERTY NAME: TGI (µM)

compound="Clc1ccc2c(NCCCCN3OC3c3ccccc3)ccnc2c1 (stereo unspecified)" measured_on="UACC-62 melanoma" value_unit=µM measurement_qualifier== recorded_result=27.1
compound="CC(=O)NC1(NC(C)=O)C2CC(C1Cc1ccccc1)C(C)(C)C2C (stereo unspecified)" measured_on="UACC-62 melanoma" value_unit=µM measurement_qualifier=> recorded_result=100
compound=CN(C)C(=S)/N=c1\ssc(=S)n1C measured_on="UACC-62 melanoma" value_unit=µM measurement_qualifier=> recorded_result=100
compound=O=C1c2cccnc2-c2nc(-c3cccnc3)cc3c2c1nc1ccccc13 measured_on="UACC-62 melanoma" value_unit=µM measurement_qualifier== recorded_result=28.3
compound=Clc1ccccc1CN1COc2c(ccc3cccnc23)C1 measured_on="UACC-62 melanoma" value_unit=µM measurement_qualifier== recorded_result=8.56
compound=Clc1ccc(/C=C/c2ccc3ccccc3n2)cc1 measured_on="UACC-62 melanoma" value_unit=µM measurement_qualifier=> recorded_result=100

###

Tested on: DU-145 prostate
Experiment: NCI tumour cell line growth inhibition, 48 h; in the data active means GI50 below about 0.43 µM; inactive means the rest
Possible outcomes: T (active), F (inactive)

molecule=CCCN(CCC)c1ccc(C=O)c(Cl)c1 assigned_class=F
molecule=FC(F)(F)c1ccc(-c2nn3ncccc3c2-c2ccnc(Nc3ccc4c(c3)OCCO4)n2)cc1 assigned_class=F
molecule="COc1cc(F)ccc1-c1cc(Nc2cc(CS(C)(=N)=O)ccn2)ncc1F (stereo not given)" assigned_class=T
molecule=Cn1cc(-c2cc(-c3cn(C)c4ccc(Cl)cc34)[nH]n2)c2cc(Cl)ccc21 assigned_class=F
molecule=O=C(Nc1cccc2[nH]c(C(F)(F)F)nc12)c1cc(Cl)ccc1Cl assigned_class=F
molecule="O=C(NN1C(=O)CSC1c1cccc(Cl)c1)C(O)c1ccccc1 (stereo not given)" assigned_class=F
molecule=ClCc1cccc(Cn2cnc3c(Cl)nc(Cl)nc32)c1 assigned_class=F
molecule="COc1cc(OCc2cccc(-c3ccccc3)c2C)cc(OC)c1CN1CCCCC1C(=O)NCCOCCOCCN (stereo not given)" assigned_class=F
molecule="COc1ccc(C2=NC(=O)NC2c2ccc(OC)cc2)cc1 (stereo not given)" assigned_class=F
molecule=C=C1C(=O)O[C@H]2[C@H]1CC/C(COC(=O)NCc1ccc(Cn3c(=O)sn(CCCCC)c3=O)cc1)=C\CC[C@@]1(C)O[C@@H]21 assigned_class=F

###

System: K-562 leukemia
Assay: NCI tumour cell line growth inhibition, 48 h; in the data active = GI50 below about 0.43 µM; inactive = the rest
Outcome codes: yes for active, no for inactive

compound="CC(=O)OC(C(=O)[O][Sn]([CH3])([CH3])[CH3])c1ccccc1 (stereo unspecified)" assigned_class=no
compound=O=C(c1ccc2ccccc2c1)c1nc2cc(F)ccc2[n+]([O-])c1C(F)(F)F assigned_class=no
compound=COc1ccc(-c2c(C#N)c(N)nc(N3CCOCC3)c2C#N)cc1 assigned_class=no
compound="COc1cc(F)ccc1-c1cc(Nc2cc(CS(C)(=N)=O)ccn2)ncc1F (stereo unspecified)" assigned_class=yes
compound=CCSc1ccc([C@@H]2[C@@H](O)C(=O)N2c2cc(OC)c(OC)c(OC)c2)cc1 assigned_class=yes
compound=CCCN(CCC)c1ccc(C=O)c(Cl)c1 assigned_class=no

###

System: OVCAR-4 ovarian
Assay: NCI tumour cell line growth inhibition, 48 h
PROPERTY NAME: TGI (µM)

compound_string=COc1ccc(/C=C(\NC(=O)c2ccccc2)c2nc3ccccc3[nH]2)cc1OC value_unit=µM measurement_qualifier=> recorded_result=100
compound_string=CCOc1ccc(N=C(NC(=O)c2ccccc2)SC)cc1 value_unit=µM measurement_qualifier=> recorded_result=100
compound_string=Cc1cc(N/N=C/c2nc(-c3ccc(Cl)cc3)oc2C)c2cc(Br)ccc2n1 value_unit=µM measurement_qualifier== recorded_result=3.69
compound_string=C=C1C(=O)O[C@H]2[C@H]1CC/C(COC(=O)NCc1ccc(Cn3c(=O)sn(CCCCC)c3=O)cc1)=C\CC[C@@]1(C)O[C@@H]21 value_unit=µM measurement_qualifier== recorded_result=3.3
compound_string=N#Cc1c(Cl)c2cccnc2n2c1nc1ccccc12 value_unit=µM measurement_qualifier== recorded_result=5.29
compound_string=Cc1ccc(/C=C2\NC(=S)NC2=O)cc1 value_unit=µM measurement_qualifier=> recorded_result=100
compound_string=N#Cc1c2ccc([N+](=O)[O-])cc2c(=O)n2c1[nH]c1ccc(C(F)(F)F)cc12 value_unit=µM measurement_qualifier=> recorded_result=100
compound_string=C=C1C(=O)O[C@H]2[C@H]1CC/C(Cn1cc(-c3ccc(N)cc3)nn1)=C\CC[C@@]1(C)O[C@@H]21 value_unit=µM measurement_qualifier== recorded_result=18.6
compound_string=CCN1[C@@H](C(=O)NC23CCC(C(=O)O)(CC2)CC3)[C@H](c2cccc(Cl)c2F)[C@]2(C(=O)Nc3cc(Cl)ccc32)C12CCCCC2 value_unit=µM measurement_qualifier== recorded_result=15.5

###

System: UACC-257 melanoma
Test: NCI tumour cell line growth inhibition, 48 h
PROPERTY NAME: TGI (µM)

compound="Cc1cccc2oc3c(c(=O)c12)CC(O)C(C)(C)O3 (stereo unspecified)" value_unit=µM measurement_qualifier=> recorded_result=100
compound="COc1ccc(C2=NC(=O)NC2c2ccc(OC)cc2)cc1 (stereo unspecified)" value_unit=µM measurement_qualifier=> recorded_result=100
compound=C=C(CN1CCc2c([nH]c3ccccc23)C1)c1ccc(C(=O)Nc2ccccc2N)cc1 value_unit=µM measurement_qualifier== recorded_result=11.6
compound=COc1ccc(-c2c(C#N)c(N)nc(N3CCOCC3)c2C#N)cc1 value_unit=µM measurement_qualifier== recorded_result=82.1
compound=c1cc2c3c(c1)c1cc4c(cc1c[n+]3CC2)OCO4 value_unit=µM measurement_qualifier== recorded_result=13.5
compound="CC(C)(C)NCC(O)COc1c(Br)c(Br)c(Br)c2c1OC(C)(C)C2 (stereo unspecified)" value_unit=µM measurement_qualifier== recorded_result=3.91

###

Form field: TGI (one value per entry).
Test system: K-562 leukemia
Assay: NCI tumour cell line growth inhibition, 48 h
PROPERTY NAME: TGI

compound=Cc1ccc(S(=O)(=O)CNC(=O)C(O)(O)C(F)(F)F)cc1 recorded_result="> 100 µM"
compound=O=C1CCCC/C1=C\c1ccc([N+](=O)[O-])cc1 recorded_result="32.1 µM"
compound=Nc1nc(N)c2cc(Sc3ccc4ccccc4c3)ccc2n1 recorded_result="1.88 µM"
compound="Nc1nccc(NCC2(CO)CC(OCc3ccccc3)C2)n1 (configuration not stated)" recorded_result="> 100 µM"
compound="Cc1cccc2oc3c(c(=O)c12)CC(O)C(C)(C)O3 (configuration not stated)" recorded_result="> 100 µM"
compound="CCOC(=O)C(=CNc1ccc(N(C2=NCC(C)S2)c2ccc(F)c(Cl)c2)cc1)C(=O)OCC (configuration not stated)" recorded_result="> 100 µM"
compound=Cc1ccc(/C=C2\NC(=S)NC2=O)cc1 recorded_result="> 100 µM"
compound="CC1CN=C(Nc2cccc(F)c2)S1 (configuration not stated)" recorded_result="> 100 µM"
compound="CC12CC(=O)Nc3ccccc3N1C(c1ccccc1)=NO2 (configuration not stated)" recorded_result="> 100 µM"
compound=CN(C)CCCOc1cccc(NC2=C(Cl)C(=O)C(Nc3cccc(OCCCN(C)C)c3)=C(Cl)C2=O)c1 recorded_result="1.42 µM"
compound="O=C1C[C@@]23CCC4(CC2CCC[C@H]3O1)OCCO4 (some centres not stated)" recorded_result="> 100 µM"
compound="CC1(C)COC2C(N(Cc3ccccc3)Cc3ccccc3)C(=O)N21 (configuration not stated)" recorded_result="82.9 µM"

Data origin, for the record: PubChem BioAssay (NCI)
